The origin of these recorded values is a melting point compilation (Tetko et al.; mined from patent text by program, amines drawn as free bases though some values may be those of a salt).

Measured melting point values are reported for all entries that follow.

Below are worked cases with known answers.
1. CCCCS(=O)(=O)Nc1ccc(Oc2cccc3cccnc23)cc1 : 162 °C
2. CCCOc1ccc(-c2ccc(Cl)nn2)cc1OC : 132 °C
3. COC(=O)c1c(O)c(-c2ccccc2)nn1C : 88 to 90 °C

Next:
Exercise: Could you share which melting point value was measured for CNCC1CN(c2c(F)cc3c(=O)c(C(=O)O)cn(-c4ccc(F)cc4F)c3c2F)CCO1 (stereo not given) ?
Key: 224 to 227 °C

* * *

Quantity: melting point

Below are worked cases with known answers.
1) C=CCOc1ccc2nc(S(N)(=O)=O)sc2c1 : 184 to 187 °C
2) Cc1cc2c(nc1OCCCCN1CCN(c3cccc4ccccc34)CC1)NC(=O)CC2 : 76 to 78 °C
3) CC(C)(C)OC(=O)N1C[C@@H]2C(=O)CCC(c3ccccc3)(c3ccccc3)[C@@H]2C1 : 119 °C
4) Cc1nccn1-c1nc(-c2ccc(Cl)cc2)c(CCC(=O)NCCCl)o1 : 155 to 156 °C
5) NC(=O)c1[nH]c2ccccc2c1Sc1ccccc1 : 197 to 198 °C

Next:
Exercise: Could you share which melting point value was measured for COC(=O)C=Cc1csc2ccccc12 ?
Key: 63 to 65 °C
